procedure summary: chemical genetic growth profiling, strain panel (AID 1159580);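 note: tested at 20 µM; growth read once vehicle control cultures reached saturation at 30 °C; lower values mean less growth of the strain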
test context: S. cerevisiae deletion strains, growth OD, locus YHR079C, strain IRE1
Hit rate of the full screen: of about 5,500 compounds, about 2,000 (36%) were called active. About 18% were inconclusive and are not listed. Cut-off read from the data, not from the text of the source: active = normalized growth mostly below about 0.91 (no sharp cut-off); inconclusive = no clear call, values can overlap the other calls; inactive = mostly above about 0.92. Some of the results follow.
Outcomes: active, inactive

INSERT INTO measurements (compound, label_class) VALUES
  ('CCCN1C[C@H](CSC)C[C@@H]2c3cccc4[nH]cc(c34)C[C@H]21', 'inactive'),
  ('COc1ccc(-c2cc(=O)c3c(OC(C)=O)cc(OC(C)=O)cc3o2)cc1', 'inactive'),
  ('CC[N+]1(C)CCCC(OC(=O)C(O)(c2ccccc2)c2ccccc2)C1 (centres undefined)', 'inactive'),
  ('Fc1ccc(N/N=C\Cc2nnnn2-c2ccccc2)c(F)c1', 'active'),
  ('COc1cccc2c1cc([N+](=O)[O-])c1c(C(=O)O)cc3c(c12)OCO3', 'inactive'),
  ('COc1c2c(cc3c1OCO3)CC[N+](C)=C2', 'inactive'),
  ('CC(C)(C)c1csc(NC(=O)Nc2ccc(Cl)cc2)n1', 'active'),
  ('N#CCC(=O)c1cccc(CSc2ccccc2Cl)c1', 'active'),
  ('CN(C)C(=O)Oc1cc(OC(=O)N(C)C)cc(C(O)CNC(C)(C)C)c1 (centres undefined)', 'inactive'),
  ('COc1ccc(-c2coc3cc(O)cc(O)c3c2=O)cc1', 'active'),
  ('O=C1Nc2ccccc2/C1=N/N=C\c1ccccc1Cl', 'inactive'),
  ('COc1ccc(-c2cc(=O)c3ccccc3o2)cc1', 'inactive'),
  ('CC1(C)O[C@@H]2CC3C4C[C@H](F)C5=CC(=O)C=CC5(C)C4C(O)CC3(C)[C@]2(C(=O)CO)O1 (some centres undefined)', 'inactive'),
  ('COc1ccc2cc3[n+](cc2c1OC)CCc1cc2c(cc1-3)OCO2', 'active'),
  ('CN(N=O)C(=O)N[C@@H]1[C@@H](O)[C@H](O)[C@@H](CO)O[C@@H]1O', 'inactive'),
  ('COc1cc([C@@H]2c3cc4c(cc3[C@H](O)[C@H]3COC(=O)[C@@H]23)OCO4)cc(OC)c1OC', 'inactive'),
  ('N=c1ccc2nc3c(Cl)c4c(c(Cl)c3oc-2c1S(=O)(=O)O)Nc1ccc(N)c(S(=O)(=O)O)c1O4', 'inactive'),
  ('COc1cc(NC(=S)Nc2ccccc2OC(F)(F)F)cc(C(F)(F)F)c1', 'inactive'),
  ('COC(=O)C1=C(C)NC(C)=C(C(=O)OCCN(C)Cc2ccccc2)C1c1cccc([N+](=O)[O-])c1 (centres undefined)', 'inactive'),
  ('N#CCCCCOc1ccc2c(=O)cc(-c3ccccc3)oc2c1', 'inactive'),
  ('COc1cc2cc[n+]3cc4c(OC)c(OC)ccc4cc3c2cc1OC', 'inactive'),
  ('CC1=CCc2c(cc3oc(C)cc(=O)c3c2O)OC1', 'inactive'),
  ('[N-]=[N+]=CC(=O)OCC(N)C(=O)O (centres undefined)', 'inactive'),
  ('O=C(CSCc1nc(-c2ccc(Cl)cc2)cs1)N/N=C\c1cccs1', 'inactive'),
  ('N[C@@H]1CONC1=O', 'inactive'),
  ('O=c1c2ccccc2[se]n1-c1ccccc1', 'active'),
  ('Cc1ccc2c(c1)CCCN2CC(=O)N(c1ccccc1)C1CCCCC1', 'inactive'),
  ('CCN(CC)CCNc1ccc(CO)c2sc3ccccc3c(=O)c12', 'inactive'),
  ('N/C(CSc1ncccc1C(F)(F)F)=N/OC(=O)Nc1cccc(Cl)c1', 'inactive'),
  ('C[N+]12CC[C@@]34c5ccccc5N5C(=O)CC6OCC=C(C1)[C@H](CC32)[C@@H]6C54 (some centres undefined)', 'inactive'),
  ('C/C(=N/Nc1nc(C(C)(C)C)cs1)c1ccc(Cl)c(Cl)c1', 'inactive'),
  ('O=C1CC[C@]23C=CC(=O)NCCCCNCCCNC(=O)/C=C/c4ccc(c2c4)O[C@@H]3C1', 'inactive'),
  ('O=c1c(-c2ccc(O)cc2)coc2cc(O)cc(O)c12', 'inactive'),
  ('CC(=O)Oc1cc(-c2coc3cc(OC(C)=O)c(OC(C)=O)c(OC(C)=O)c3c2=O)cc(OC(C)=O)c1OC(C)=O', 'inactive');
